The measured values listed here are drawn from PubChem BioAssay (NCI).

Kindly supply the reported TGI values for the records listed here.
# Tested on: HCC-2998 colon
# ASSAY COMMENT: NCI tumour cell line growth inhibition, 48 h

INPUT: Record request: TGI value, item CC[C@]12CCCN3CCc4c(n(c5ccccc45)C(=O)C1)[C@@H]32
OUTPUT: 19.4 µM

INPUT: Record request: TGI value, item Nc1ccc(S(=O)(=O)Nc2nnc(S(N)(=O)=O)s2)cc1
OUTPUT: > 100 µM

INPUT: Record request: TGI value, item CC1(C)[C@H](C(=O)O)N2C(=O)[C@@H](NS(=O)(=O)c3ccc([N+](=O)[O-])cc3)[C@H]2S1(=O)=O
OUTPUT: > 100 µM

INPUT: Record request: TGI value, item COC(=O)c1c2c(cc3c1CC1(Cc4cc5c(c(C=O)c4C1)CCCC5)C3)CCCC2 (configuration not stated)
OUTPUT: > 100 µM

INPUT: Record request: TGI value, item O=C1/C(=C/c2ccccc2)CCCC1CN1CCCCC1 (configuration not stated)
OUTPUT: 29 µM

INPUT: Record request: TGI value, item CC(C)/C=C1\CCC(CN2CCCC2)C1=O (configuration not stated)
OUTPUT: 34.2 µM

INPUT: Record request: TGI value, item CCOC(=O)c1c2c(c(O)c3ccccc3c(O)n(Cc3ccc(OC)cc3)c1C)C(=O)C=CC2=O
OUTPUT: > 100 µM

INPUT: Record request: TGI value, item O=C(NC1CCN(Cc2ccccc2)CC1)c1cc(-c2ccncc2)nc2ccc(Cl)cc12
OUTPUT: > 91.1 µM

INPUT: Record request: TGI value, item CN(C)CCOc1ccc2[nH]c(C(=O)N3CC(CCl)c4c3cc(N)c3ccccc43)cc2c1 (configuration not stated)
OUTPUT: < 0.01 µM

INPUT: Record request: TGI value, item COc1cc(Cc2cc3c(c(C(=O)O)c2Br)OCO3)cc(OC)c1OC
OUTPUT: > 100 µM

INPUT: Record request: TGI value, item CS(=O)(=O)c1ccc(/C=N/NC(N)=S)cc1
OUTPUT: > 100 µM

INPUT: Record request: TGI value, item Oc1ccc(-c2csc(NNC3=NC/C(=C/c4ccc5c(c4)OCO5)S3)n2)cc1O
OUTPUT: > 100 µM

INPUT: Record request: TGI value, item CCOC(=O)NC(Nc1ncccn1)(C(F)(F)F)C(F)(F)F
OUTPUT: > 100 µM

INPUT: Record request: TGI value, item CCN(CC)CCOCC[C@H]1CC[C@H]2[C@@H]3[C@H](C)Cc4cc(OS(N)(=O)=O)ccc4[C@H]3CC[C@]12C
OUTPUT: 3.23 µM

INPUT: Record request: TGI value, item Nc1ncnc2c1ncn2C1OC(COP(=O)(O)O)C(O)C1O (configuration not stated)
OUTPUT: > 50 µM

INPUT: Record request: TGI value, item Cc1ccc(NC(=O)c2cc3cc(N=Nc4ccc(Br)cc4)ccc3oc2=O)cc1
OUTPUT: > 100 µM

INPUT: Record request: TGI value, item COc1cc2c(cc1OC)-c1cc3ccccc3c[n+]1CC2
OUTPUT: > 100 µM

----------
# Test system: SK-MEL-2 melanoma
# ASSAY COMMENT: NCI tumour cell line growth inhibition, 48 h; in the data active means GI50 below about 0.43 µM; inactive means the rest
Reply using exactly one outcome from active, inactive

INPUT: Record lookup: outcome of this test for CCSCC1CC(O)(c2ccccc2)C(c2ccccc2)C(c2ccc(Cl)cc2)O1 (configuration not stated) ?
OUTPUT: inactive

INPUT: Record lookup: outcome of this test for CCCCON(OC(=O)c1ccccc1)C(=O)c1ccccc1 ?
OUTPUT: inactive

INPUT: Record lookup: outcome of this test for CCCCC[C@H](O)/C=C/[C@@H]1[C@@H](C/C=C\CCCC(=O)O)[C@@H](O)C[C@H]1O ?
OUTPUT: inactive

INPUT: Record lookup: outcome of this test for COc1ccc(-c2cc(-c3cc(Cl)ccc3Cl)nc3n[nH]c(N)c23)cc1 ?
OUTPUT: inactive

INPUT: Record lookup: outcome of this test for CCNC(=O)[C@@H]1CCCN2C(=O)CC[C@H](NC(=O)[C@H](Cc3ccc(OP(=O)(O)O)cc3)NC(C)=O)C(=O)N12 ?
OUTPUT: inactive

INPUT: Record lookup: outcome of this test for COc1ccc(OC)c(/C=N/NC(=O)Cc2csc3nc(-c4ccc(Br)cc4)cn23)c1 ?
OUTPUT: inactive

INPUT: Record lookup: outcome of this test for OC(c1cccc(-n2ccc(C(F)(F)F)n2)c1)c1cnccc1NC1CCCCCC1 (configuration not stated) ?
OUTPUT: inactive

INPUT: Record lookup: outcome of this test for CC(=O)N[C@@H](Cc1ccc(OP(=O)(O)O)cc1)C(=O)N[C@H]1CCC(=O)N2CCC[C@@H](C(=O)NCc3ccc(Cl)cc3)N2C1=O ?
OUTPUT: inactive

INPUT: Record lookup: outcome of this test for Nc1ccc2c(c1)C(=O)C(=O)c1c-2nc2ccccn12 ?
OUTPUT: inactive

INPUT: Record lookup: outcome of this test for Cc1ccc2c(c1)C(C)Cc1c(ncnc1-n1cnc3ccccc31)N2C (configuration not stated) ?
OUTPUT: inactive

INPUT: Record lookup: outcome of this test for CC(=O)NCCc1c2c(c3nccc4c3c1Nc1ccccc1-4)OCS2 ?
OUTPUT: inactive

INPUT: Record lookup: outcome of this test for Cn1cc(-c2ccc3c(Nc4cccc(NC(=O)Nc5cccc(F)c5)c4)ncnc3c2)cn1 ?
OUTPUT: inactive

INPUT: Record lookup: outcome of this test for C/C(=N\NC(=O)c1sc(=S)n(C)c1N)c1cc2ccccc2o1 ?
OUTPUT: inactive

INPUT: Record lookup: outcome of this test for N#Cc1c(-c2ccccc2)nc(SCC2CO2)nc1N1CCOCC1 (configuration not stated) ?
OUTPUT: inactive

INPUT: Record lookup: outcome of this test for CC1(C)N=C(N)N=C(N)N1c1cccc(CCCCc2cccc(S(=O)(=O)F)c2)c1 ?
OUTPUT: inactive

INPUT: Record lookup: outcome of this test for Cc1nc(-c2cccc(Nc3nc(-c4ccc(Cl)cc4)cs3)c2)cs1 ?
OUTPUT: inactive

INPUT: Record lookup: outcome of this test for C=CC[n+]1c(/C=C/C=C2\N(C)c3ccccc3C2(C)C)sc2ccc(OC)cc21 ?
OUTPUT: active
